Test system: 898857-211-R-J1-PDC complex spheroids, growth % test/control;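 further: spheroids exposed to compound for seven days before readout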
assay notes: Anticancer human tumor 898857-211-R-J1-PDC patient-derived melanoma cell line growth inhibition [RAS]
condition description: curve of first compound; second compound 0.01 µM
quantity measured: IC50

As a guide, the following entries are already answered.
# compound, system under test, IC50
records = [
    ("Cc1nc(N2CCC3(CC2)COC(C)C3N)c(CO)nc1Sc1ccnc(N)c1Cl (stereo not given) + C=CC(=O)N1CCN(c2nc(OCC3CCCN3C)nc3c(F)c(-c4nc(N)cc(C)c4C(F)(F)F)c(Cl)cc23)C(C)C1", "898857-211-R-J1-PDC complex spheroids, growth % test/control", "> 10 µM"),
    ("C=CC(=O)Nc1cc(Nc2nccc(-c3cn(C)c4ccccc34)n2)c(OC)cc1N(C)CCN(C)C + C=CC(=O)N1CCN(c2nc(OCC3CCCN3C)nc3c(F)c(-c4nc(N)cc(C)c4C(F)(F)F)c(Cl)cc23)C(C)C1", "898857-211-R-J1-PDC complex spheroids, growth % test/control", "> 1 µM"),
    ("NC1c2ccccc2OC12CCN(c1cnc3c(N4CCCc5ncccc54)n[nH]c3n1)CC2 (stereo not given) + C=CC(=O)N1CCN(c2nc(OCC3CCCN3C)nc3c(F)c(-c4nc(N)cc(C)c4C(F)(F)F)c(Cl)cc23)C(C)C1", "898857-211-R-J1-PDC complex spheroids, growth % test/control", "> 10 µM"),
    ("CC(=O)OC12COC1CC(O)C1(C)C(=O)C(O)C3=C(C)C(OC(=O)C(O)C(NC(=O)OC(C)(C)C)c4ccccc4)CC(O)(C(OC(=O)c4ccccc4)C21)C3(C)C (stereo not given) + C=CC(=O)N1CCN(c2nc(OCC3CCCN3C)nc3c(F)c(-c4nc(N)cc(C)c4C(F)(F)F)c(Cl)cc23)C(C)C1", "898857-211-R-J1-PDC complex spheroids, growth % test/control", "< 0.0316 µM"),
]

Now consider a different compound.
In plain terms, CC(C)NCC(C(=O)N1CCN(c2ncnc3c2C(C)CC3O)CC1)c1ccc(Cl)cc1 (stereo not given) + C=CC(=O)N1CCN(c2nc(OCC3CCCN3C)nc3c(F)c(-c4nc(N)cc(C)c4C(F)(F)F)c(Cl)cc23)C(C)C1 has a documented IC50 of > 10 µM
